The reader will find reported pKi values listed item by item below.
Biological target: MASP-2 (CCP1-CCP2-SP) (Homo sapiens)
Construct: 15 μL of Enzyme MASP-2 (CCP1-CCP2-SP) in Assay Buffer
Sequence (O00187 445-686 limits assumed): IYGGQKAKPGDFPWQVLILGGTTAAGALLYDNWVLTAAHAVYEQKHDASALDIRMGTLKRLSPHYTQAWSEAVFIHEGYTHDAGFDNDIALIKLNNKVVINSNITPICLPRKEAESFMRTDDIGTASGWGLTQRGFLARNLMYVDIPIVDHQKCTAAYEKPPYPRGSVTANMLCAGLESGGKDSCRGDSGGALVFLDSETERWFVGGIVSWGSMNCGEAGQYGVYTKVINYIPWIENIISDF
Sequence (O00187 298-444 partner limits assumed): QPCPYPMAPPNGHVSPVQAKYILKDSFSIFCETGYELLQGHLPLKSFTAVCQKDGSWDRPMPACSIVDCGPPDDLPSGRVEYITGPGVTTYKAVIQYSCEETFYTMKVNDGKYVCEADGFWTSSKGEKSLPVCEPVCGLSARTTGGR
Experiment: Enzymatic Assay for MASP-2
Format: biochemical
Conditions: fluorogenic substrate based on C2 cleavage site, room temperature, 20 mM HEPES pH 7.4
Protocol: Enzymatic Assay for MASP-2 The MASP-2 assay utilizes a fluorogenic substrate, based on the cleavage site for its natural substrate C2. The assay is run at room temperature in an assay buffer containing 20 mM HEPES, pH 7.4, 140 mM NaCl and 0.1% Tween 20. […] The MASP-2 assay protocol is carried out as follows. […] After 20 min at room temperature, 15 μL of a stop solution (0.1 M acetic acid) is added, mixed and the plates are read on a SpectraMax i3x Microplate Reader and exported as Excel files. […]
pKi: −log10 of the molar value. Counter-ions that a name gives are not always drawn.

Item Cc1nc(N)ccc1CNC(=O)Cn1c(C)ncc(NS(=O)(=O)Cc2ccccc2)c1=O [Compound 1] with MASP-2 (CCP1-CCP2-SP) (Homo sapiens) - pKi?
< 5.00

Item O=C(Cn1c(-c2cccc(C3(O)CC3)c2)cnc(NCCc2ccccc2)c1=O)NCc1cc2cnccc2[nH]1 [Compound 98] with MASP-2 (CCP1-CCP2-SP) (Homo sapiens) - pKi?
> 6.30

Item COc1ccc(CNc2ncc(-c3ccccc3)n(CC(=O)NCc3cc4cnc(C)cc4[nH]3)c2=O)cc1 [Compound 77, trifluoroacetate] with MASP-2 (CCP1-CCP2-SP) (Homo sapiens) - pKi?
> 6.30

Item Cc1nc(N)ccc1CNC(=O)Cn1c(-c2cccc3cnccc23)cnc(NCCc2ccccc2)c1=O [Compound 24] with MASP-2 (CCP1-CCP2-SP) (Homo sapiens) - pKi?
> 6.30

Item Cn1cc(-c2cnc(NCCc3ccccc3)c(=O)n2CC(=O)NCc2cc3cnccc3o2)cn1 [Compound 132] with MASP-2 (CCP1-CCP2-SP) (Homo sapiens) - pKi?
5.60 to 6.30
